All values here come from the supplement of paper PMC10065799.

EXPERIMENTAL TARGET: MERTK (UniProt Q12866)
Sequence (Q12866 whole entry, looked up): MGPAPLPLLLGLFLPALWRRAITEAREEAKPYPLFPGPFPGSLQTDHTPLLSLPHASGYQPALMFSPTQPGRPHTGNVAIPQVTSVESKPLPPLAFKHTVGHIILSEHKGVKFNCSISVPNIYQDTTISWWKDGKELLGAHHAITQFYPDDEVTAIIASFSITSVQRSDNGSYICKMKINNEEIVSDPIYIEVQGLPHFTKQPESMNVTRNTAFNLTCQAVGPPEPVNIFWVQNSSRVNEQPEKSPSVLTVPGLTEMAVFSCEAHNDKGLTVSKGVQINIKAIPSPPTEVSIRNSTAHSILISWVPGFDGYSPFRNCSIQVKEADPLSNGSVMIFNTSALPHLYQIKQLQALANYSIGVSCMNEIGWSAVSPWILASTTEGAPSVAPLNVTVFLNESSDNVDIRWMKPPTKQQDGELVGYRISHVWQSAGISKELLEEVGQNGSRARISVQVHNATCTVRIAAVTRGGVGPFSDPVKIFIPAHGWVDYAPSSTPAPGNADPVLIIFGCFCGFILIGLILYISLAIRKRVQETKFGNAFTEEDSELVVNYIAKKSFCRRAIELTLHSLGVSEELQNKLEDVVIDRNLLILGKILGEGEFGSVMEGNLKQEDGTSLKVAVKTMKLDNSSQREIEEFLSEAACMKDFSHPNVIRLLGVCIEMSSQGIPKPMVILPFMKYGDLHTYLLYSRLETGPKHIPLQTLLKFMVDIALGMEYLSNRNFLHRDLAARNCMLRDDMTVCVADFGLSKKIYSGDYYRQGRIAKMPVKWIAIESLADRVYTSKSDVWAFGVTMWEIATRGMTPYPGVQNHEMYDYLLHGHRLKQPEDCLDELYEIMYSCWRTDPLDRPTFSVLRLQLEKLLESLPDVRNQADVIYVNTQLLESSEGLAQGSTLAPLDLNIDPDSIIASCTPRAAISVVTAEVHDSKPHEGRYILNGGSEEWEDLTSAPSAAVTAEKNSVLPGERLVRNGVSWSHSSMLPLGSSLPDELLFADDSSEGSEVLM
ASSAY REMARKS: phosphorylation enrichment, bacterial display (enrichment ratio); higher = better substrate or ligand; peptides without Tyr show the background;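 also: 11-residue human phosphosite peptides and single-mutation variants displayed on the E. coli surface, counted by deep sequencing, each peptide's frequency after selection divided by its frequency in the unselected input library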;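 also: frequency after pTyr selection over input frequency; kinase dosed for 20-30% of maximal phosphorylation in three min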
METRIC: phosphorylation enrichment
The answer should be a number; do not append a unit.

{"columns": ["SEQ TEXT", "phosphorylation enrichment"],
 "data": [
  ["RQQEDYLLYKQ [RARRES1_Y159]", 0.631],
  ["PEPTGYSAELS [EZR_Y499_A494P]", 0.567],
  ["FSPCDYQPCLA [TNS1_Y798_Y796C_YF]", 0.49],
  ["RIAFQYGVTDL [MYBPC3_Y340]", 0.514],
  ["GVIKEYQIRQV [USH2A_Y3623]", 0.359]
]}

// map GGQSVYHVNLH [HINT1_Y109_H112N] to recorded phosphorylation enrichment (system: MERTK (UniProt Q12866))
0.387

Param item: SCRSKYVGLWG [KCNQ1_Y184_G179S]
0.451

Also DLEKTYNTFRS [B4GALNT2_Y538_A533D_YF] , if possible.
0.291
